# assayComment: Half life in rat brain homogenates
# Type: ADME, tissue-based
# setupConditions: brain homogenate
readoutName: half-life (min)
Give bare numbers, in min.

Request: Item under review: Cc1cc(O)cc(C)c1C[C@H](N)C(=O)N1CCC[C@H]1C(=O)N[C@@H](Cc1ccccc1)C(=O)N[C@@H](Cc1ccccc1)C(N)=O . Reported half-life?
Result: 39.5

----------
Mu-type opioid receptor (Rattus norvegicus, UniProt P33535): reported pKi for various compounds.
Sequence (P33535 whole entry): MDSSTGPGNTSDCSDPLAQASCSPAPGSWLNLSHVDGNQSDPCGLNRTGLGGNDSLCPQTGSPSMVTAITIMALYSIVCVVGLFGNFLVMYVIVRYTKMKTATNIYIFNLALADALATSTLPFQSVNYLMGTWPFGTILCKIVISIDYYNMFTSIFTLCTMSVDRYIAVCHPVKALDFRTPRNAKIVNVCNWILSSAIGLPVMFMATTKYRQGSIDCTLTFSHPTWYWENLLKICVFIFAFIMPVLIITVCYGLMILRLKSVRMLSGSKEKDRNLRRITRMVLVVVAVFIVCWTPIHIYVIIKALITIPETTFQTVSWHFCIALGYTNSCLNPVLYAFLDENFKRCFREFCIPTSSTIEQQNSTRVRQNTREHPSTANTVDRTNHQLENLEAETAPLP
Where a SMILES comes first, the peptide text is derived from it. [ ]: non-standard residue; d: D form. The star is where a group is joined. X1 = OC[C@H]1O[C@@H](n2cc(C*)nn2)[C@H](O)[C@@H](O)[C@H]1O; Dmt = Cc1cc(O)cc(C)c1C[C@H](N)C(=O)O
One number for each entry, as −log10 of the molar value.

Cc1cc(O)cc(C)c1C[C@H](N)C(=O)N[C@H](CCCNC(=N)N)C(=O)N[C@@H](Cc1ccccc1)C(=O)N[C@@H](Cc1cn([C@@H]2O[C@H](CO)[C@H](O)[C@H](O)[C@H]2O)nn1)C(N)=O = 9.65

Request: Bench note: what pKi did Cc1cc(O)cc(C)c1C[C@H](N)C(=O)N[C@H](CCCNC(=N)N)C(=O)N[C@@H](Cc1ccccc1)C(=O)N[C@@H](COCc1cn([C@@H]2O[C@H](CO)[C@H](O)[C@H](O)[C@H]2O)nn1)C(N)=O (H-[Dmt][dR]FS(X1)-NH2) show?
Result: 9.95

----------
# assayComment: Half life in human plasma
# Assay type: ADME, cell-free
readoutName: half-life (min)
Give bare numbers, in min.

Request: Data request, read-out half-life, for Cc1cc(O)cc(C)c1C[C@H](N)C(=O)N1CCC[C@H]1C(=O)N[C@@H](Cc1ccccc1)C(=O)N[C@@H](Cc1ccccc1)C(N)=O
Result: 53

----------
Exercise: for every item that follows, state its recorded IC50.
# tgt: Mu-type opioid receptor (Cavia porcellus, UniProt P97266)
# Sequence (P97266 whole entry): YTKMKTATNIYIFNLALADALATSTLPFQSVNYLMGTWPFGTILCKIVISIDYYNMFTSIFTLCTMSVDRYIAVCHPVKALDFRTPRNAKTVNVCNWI
Where a SMILES comes first, the peptide text is derived from it. [ ]: non-standard residue; d: D form. The star is where a group is joined. X1 = OC[C@H]1O[C@@H](n2cc(C*)nn2)[C@H](O)[C@@H](O)[C@H]1O; Dmt = Cc1cc(O)cc(C)c1C[C@H](N)C(=O)O
Numbers only, in nM.

N=C(N)NCCC[C@@H](NC(=O)[C@@H](N)Cc1ccc(OCc2cn([C@@H]3O[C@H](CO)[C@H](O)[C@H](O)[C@H]3O)nn2)cc1)C(=O)N[C@@H](Cc1ccccc1)C(=O)N[C@@H](CCCCN)C(N)=O = 1180

Here's the next entry for you.
Request: Param readout = IC50; param system = Mu-type opioid receptor (Cavia porcellus, UniProt P97266); param query = Cc1cc(O)cc(C)c1C[C@H](N)C(=O)N[C@H](CCCNC(=N)N)C(=O)N[C@@H](Cc1ccccc1)C(=O)N[C@@H](Cc1ccc(OCc2cn([C@@H]3O[C@H](CO)[C@H](O)[C@H](O)[C@H]3O)nn2)cc1)C(N)=O (H-[Dmt][dR]FY(X1)-NH2) ; response: value
Result: 2.3

----------
# tgt: Delta-type opioid receptor (Rattus norvegicus)
# Sequence (P33533 whole entry): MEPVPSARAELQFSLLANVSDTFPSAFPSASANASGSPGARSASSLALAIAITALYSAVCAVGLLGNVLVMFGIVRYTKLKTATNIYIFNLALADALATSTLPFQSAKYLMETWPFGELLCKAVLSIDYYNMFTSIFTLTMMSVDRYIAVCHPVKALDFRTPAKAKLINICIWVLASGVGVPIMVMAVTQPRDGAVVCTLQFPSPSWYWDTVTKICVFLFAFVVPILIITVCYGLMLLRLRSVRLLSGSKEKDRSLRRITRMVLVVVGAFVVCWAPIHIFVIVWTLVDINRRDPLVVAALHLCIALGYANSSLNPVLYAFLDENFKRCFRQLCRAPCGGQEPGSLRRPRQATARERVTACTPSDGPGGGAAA
# assayComment: Displacement of [3H]DSLET from delta opioid receptor in rat brain membranes
Where a SMILES comes first, the peptide text is derived from it. [ ]: non-standard residue; d: D form. The star is where a group is joined. X1 = OC[C@H]1O[C@@H](n2cc(C*)nn2)[C@H](O)[C@@H](O)[C@H]1O; Dmt = Cc1cc(O)cc(C)c1C[C@H](N)C(=O)O
readoutName: pKi
One number for each entry, as −log10 of the molar value.

Examples from the recorded data:
Cc1cc(O)cc(C)c1C[C@H](N)C(=O)N[C@H](CCCNC(=N)N)C(=O)N[C@@H](Cc1ccccc1)C(=O)N[C@@H](Cc1ccc(OCc2cn([C@@H]3O[C@H](CO)[C@H](O)[C@H](O)[C@H]3O)nn2)cc1)C(N)=O (H-[Dmt][dR]FY(X1)-NH2) = 7.65
Cc1cc(O)cc(C)c1C[C@H](N)C(=O)N[C@H](CCCNC(=N)N)C(=O)N[C@@H](Cc1ccccc1)C(=O)N[C@@H](Cc1cn([C@@H]2O[C@H](CO)[C@H](O)[C@H](O)[C@H]2O)nn1)C(N)=O = 7.81
Cc1cc(O)cc(C)c1C[C@H](N)C(=O)N[C@H](CCCNC(=N)N)C(=O)N[C@@H](Cc1ccccc1)C(=O)N[C@@H](Cc1cn([C@@H]2O[C@H](CO)[C@@H](O)[C@H](O)[C@H]2O)nn1)C(N)=O = 7.92

Moving on to another molecule below.
Request: Form entry - test system: Delta-type opioid receptor (Rattus norvegicus); read-out: pKi; molecule: Cc1cc(O)cc(C)c1C[C@H](N)C(=O)N[C@H](CCCNC(=N)N)C(=O)N[C@@H](Cc1ccccc1)C(=O)N[C@@H](COCc1cn([C@@H]2O[C@H](CO)[C@H](O)[C@H](O)[C@H]2O)nn1)C(N)=O (H-[Dmt][dR]FS(X1)-NH2)
Result: 8.20

----------
Observed pIC50, system Mu-type opioid receptor (Cavia porcellus).
Where a SMILES comes first, the peptide text is derived from it. [ ]: non-standard residue; d: D form. The star is where a group is joined. X1 = OC[C@H]1O[C@@H](n2cc(C*)nn2)[C@H](O)[C@@H](O)[C@H]1O; Dmt = Cc1cc(O)cc(C)c1C[C@H](N)C(=O)O
Answers are plain numbers, as −log10 of the molar value.

Cc1cc(O)cc(C)c1C[C@H](N)C(=O)N[C@H](CCCNC(=N)N)C(=O)N[C@@H](Cc1ccccc1)C(=O)N[C@@H](Cc1cn([C@@H]2O[C@H](CO)[C@H](O)[C@H](O)[C@H]2O)nn1)C(N)=O = 9.18

Each molecule below has a reported value. Please supply its pIC50.
1. Cc1cc(O)cc(C)c1C[C@H](N)C(=O)N[C@H](CCCNC(=N)N)C(=O)N[C@@H](Cc1ccccc1)C(=O)N[C@@H](COCc1cn([C@@H]2O[C@H](CO)[C@H](O)[C@H](O)[C@H]2O)nn1)C(N)=O (H-[Dmt][dR]FS(X1)-NH2)
2. Cc1cc(O)cc(C)c1C[C@H](N)C(=O)N[C@H](CCCNC(=N)N)C(=O)N[C@@H](Cc1ccccc1)C(=O)N[C@@H](Cc1cn([C@@H]2O[C@H](CO)[C@@H](O)[C@H](O)[C@H]2O)nn1)C(N)=O
3. NCCCC[C@H](NC(=O)[C@H](Cc1ccccc1)NC(=O)[C@@H](CCCN=C(N)N)NC(=O)[C@@H](N)Cc1ccc(O)cc1)C(N)=O

Result:
9.46
8.84
6.60

----------
# tgt: Mu-type opioid receptor (Rattus norvegicus)
Where a SMILES comes first, the peptide text is derived from it. [ ]: non-standard residue; d: D form. The star is where a group is joined. X1 = OC[C@H]1O[C@@H](n2cc(C*)nn2)[C@H](O)[C@@H](O)[C@H]1O; Dmt = Cc1cc(O)cc(C)c1C[C@H](N)C(=O)O
Consider the following molecules; for each one, report its pKi.
Give bare numbers, as −log10 of the molar value.

Below, each entry is followed by its recorded pKi result.
N=C(N)NCCC[C@@H](NC(=O)[C@@H](N)Cc1ccc(OCc2cn([C@@H]3O[C@H](CO)[C@H](O)[C@H](O)[C@H]3O)nn2)cc1)C(=O)N[C@@H](Cc1ccccc1)C(=O)N[C@@H](CCCCN)C(N)=O = 7.42
Cc1cc(O)cc(C)c1C[C@H](N)C(=O)N[C@H](CCCNC(=N)N)C(=O)N[C@@H](Cc1ccccc1)C(=O)N[C@@H](Cc1ccc(OCc2cn([C@@H]3O[C@H](CO)[C@H](O)[C@H](O)[C@H]3O)nn2)cc1)C(N)=O (H-[Dmt][dR]FY(X1)-NH2) = 9.54

Would you kindly look at the next entry?
Request: Form field: reported pKi of Cc1cc(O)cc(C)c1C[C@H](N)C(=O)N[C@H](CCCNC(=N)N)C(=O)N[C@@H](Cc1ccccc1)C(=O)N[C@@H](Cc1cn([C@@H]2O[C@H](CO)[C@@H](O)[C@H](O)[C@H]2O)nn1)C(N)=O
Result: 9.69

----------
# tgt: Delta-type opioid receptor (Mus musculus)
# Sequence (P32300 whole entry): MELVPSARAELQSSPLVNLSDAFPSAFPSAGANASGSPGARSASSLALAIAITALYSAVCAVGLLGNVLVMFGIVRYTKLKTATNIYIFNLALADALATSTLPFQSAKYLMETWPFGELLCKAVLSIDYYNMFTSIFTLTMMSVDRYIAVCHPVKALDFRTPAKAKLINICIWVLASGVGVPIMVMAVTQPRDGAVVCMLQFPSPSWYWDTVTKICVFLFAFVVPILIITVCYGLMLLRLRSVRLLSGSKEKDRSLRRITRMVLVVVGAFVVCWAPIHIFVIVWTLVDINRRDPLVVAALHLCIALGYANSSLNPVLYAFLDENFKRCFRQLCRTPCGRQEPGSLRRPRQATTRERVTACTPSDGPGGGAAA
# assayComment: Agonist activity at delta opioid receptor in mouse vas deferens
Where a SMILES comes first, the peptide text is derived from it. [ ]: non-standard residue; d: D form. The star is where a group is joined. X1 = OC[C@H]1O[C@@H](n2cc(C*)nn2)[C@H](O)[C@@H](O)[C@H]1O; Dmt = Cc1cc(O)cc(C)c1C[C@H](N)C(=O)O
readoutName: pIC50
Answers are plain numbers, as −log10 of the molar value.

These solved cases illustrate the format of a correct answer.
Cc1cc(O)cc(C)c1C[C@H](N)C(=O)N[C@H](CCCNC(=N)N)C(=O)N[C@@H](Cc1ccccc1)C(=O)N[C@@H](Cc1cn([C@@H]2O[C@H](CO)[C@H](O)[C@H](O)[C@H]2O)nn1)C(N)=O = 8.70
Cc1cc(O)cc(C)c1C[C@H](N)C(=O)N[C@H](CCCNC(=N)N)C(=O)N[C@@H](Cc1ccccc1)C(=O)N[C@@H](COCc1cn([C@@H]2O[C@H](CO)[C@H](O)[C@H](O)[C@H]2O)nn1)C(N)=O (H-[Dmt][dR]FS(X1)-NH2) = 8.31

# return pIC50 for each item in the list
1. Cc1cc(O)cc(C)c1C[C@H](N)C(=O)N[C@H](CCCNC(=N)N)C(=O)N[C@@H](Cc1ccccc1)C(=O)N[C@@H](Cc1ccc(OCc2cn([C@@H]3O[C@H](CO)[C@H](O)[C@H](O)[C@H]3O)nn2)cc1)C(N)=O (H-[Dmt][dR]FY(X1)-NH2)
2. N=C(N)NCCC[C@@H](NC(=O)[C@@H](N)Cc1ccc(OCc2cn([C@@H]3O[C@H](CO)[C@H](O)[C@H](O)[C@H]3O)nn2)cc1)C(=O)N[C@@H](Cc1ccccc1)C(=O)N[C@@H](CCCCN)C(N)=O
3. Cc1cc(O)cc(C)c1C[C@H](N)C(=O)N[C@H](CCCNC(=N)N)C(=O)N[C@@H](Cc1ccccc1)C(=O)N[C@@H](Cc1cn([C@@H]2O[C@H](CO)[C@@H](O)[C@H](O)[C@H]2O)nn1)C(N)=O

Result:
1: 8.22; 2: 5.70; 3: 8.56
